# Assay method text: Cytotoxicity activity against human HepG2 cells assessed by CellTiter-Glo luminescent cell viability assay.
# Format: toxicity, cell-based
# Set-up: assay stage confirmatory assay, source tissue liver
# Condition label: HepG2 cells, read-out: IC50 relative
Counter-ions that a name gives are not always drawn. Activity calls are given as the source filed them. The rule behind the calls is not given here.
Log the outcome using a class from TRUE (active), FALSE (inactive)

Solved entries:
Clc1cccc2[nH]nc(Br)c12 : TRUE
COc1ccccc1C(=O)Nc1cc2c(cc1N1CCNC[C@H]1C)n(C)c(=O)n2C : FALSE
CN(C)Cc1cccc(N/C(=C2\C(=O)Nc3cc(C(=O)N(C)C)ccc32)c2ccccc2)c1 : TRUE
O=C(Cn1ncc(Cl)c(Cl)c1=O)N(Cc1ccco1)CC(F)(F)F : TRUE
CCOC(=O)CNS(=O)(=O)c1cc(-c2nnc(Nc3cccc(O)c3)c3ccccc23)ccc1C : TRUE

Name the outcome recorded for "COc1cc2c(NC3CCN(C(C)C)CC3)nc(C3CCCCC3)nc2cc1OCCCN1CCCC1" in the assay.
TRUE

Entry CN(C)CCCN1c2ccccc2Sc2ccc(Cl)cc21 [CHLORPROMAZINE HYDROCHLORIDE] : call = ?
TRUE

// return assay outcome for "CCOc1cccc(OCC)c2c(C)nc(C)c1-2"
FALSE

Per the assay record, what outcome was assigned to "C[C@@H](C(=O)Nc1c2c(nn1C)CSC2)N1Cc2ccccc2C1=O" ?
FALSE

Please share the test call associated with "Cc1cc(C#N)cc(C)c1Oc1nc(Nc2ccc(C#N)cc2)nc(N)c1Br" .
FALSE

Where do these numbers come from? They come from ChEMBL document CHEMBL5303711.
